# Target desc: Torsin-1A-interacting protein 1 (Homo sapiens)
# Assay protocol: LAP1 binders from COS7 cell lysate, primary screen, small-molecule microarray, 635/667 nm fluorescence (AID 1116)
# Experimental context: COS7-hLAP1 lysate binding, 635 nm fluorescence, higher = more signal
Could you please report measured composite z-score for the items listed next?
// print number alone

Given Cc1ccc(S[C@]2(C(=O)NCC(F)(F)F)CC(=O)N(Cc3ccccc3)[C@@H]2c2ccc(CO)cc2)cc1 , state its recorded composite z-score.
0.122

composite z-score for CCOc1cc(C(O)C2C=CC3C(=O)N(C)C(=O)C3N2N2CCCCC2)ccc1O (stereo not drawn) ?
-0.283

If you can, please state the reported composite z-score value of CCOC(=O)C1=CC[C@@H](c2cc(Cl)ccc2Cl)N(S(=O)(=O)c2ccc(C)cc2)[C@H]1c1ccc(OC)cc1 .
0.417

Which composite z-score is listed for COCCOC(=O)N1C(=O)[C@@]2(c3cc(C#CC4(O)CCCCCC4)ccc31)[C@H](C(=O)N1CCCCCCC1)[C@H]1C(=O)O[C@H](c3ccccc3)[C@H](c3ccccc3)N1[C@@H]2c1ccc(OCCO)cc1 ?
4.12

For the compound O=C1O[C@H](c2ccccc2)[C@H](c2ccccc2)N2[C@H]1[C@@H](C(=O)O)[C@]1(C(=O)Nc3ccccc31)[C@H]2c1ccc(O)cc1 , what composite z-score is on record?
-0.321

Dear colleague, I am looking for the recorded composite z-score of the following compound: CC(C)N1C(=O)[C@@]2(c3ccc([N+](=O)[O-])cc3)CC(=O)N(C3CCCCC3)[C@@H]2c2ccc(CO)cc21
0.214

// composite z-score lookup, key: O=C1OCC=C[C@H]2OC34C=CCN(c5ccc(Cl)cc5)C(=O)[C@H]3N(CCCCCO)C(=O)[C@@H]4[C@@H]12 (stereo partly drawn)
0.0462

Report composite z-score for COc1cc(OC)c(C(O)C2C=CC3C(=O)N(c4ccccc4)C(=O)C3N2Nc2ccc(C#N)cc2)cc1Br (stereo not drawn) please.
2.18
